# target.or.system: PCSK9Δhelix (Homo sapiens)
# Construct: Human PCSK9 construct M1-Q692 with an engineered TEV site (residue deletion Y166, R167); made in house; host or cells: CHO
# test.method.notes: PCSK9Δhelix/Ab20 TR-FRET binding assay
# condition.info: TR-FRET; Table 8D, disulfide-cyclized extension peptides; read-out: PCSK9Δhelix/Ab20 IC50
pIC50: −log10 of the molar value. Bridge positions count the residues as written; N and C are the ends. Square brackets hold non-standard residues; d marks the D form. Peptide text beside a SMILES is read from it.
metric.name: pIC50

- compound: "CC[C@H](C)[C@@H]1NC(=O)[C@@H](CCCNC(=N)N)NC(=O)[C@H](CCC(N)=O)NC(=O)[C@H](CC(C)C)NC(=O)[C@H](CC(N)=O)NC(=O)[C@H](Cc2c[nH]c3ccccc23)NC(=O)[C@@H]2CCCN2C(=O)[C@H](CC(C)C)NC(=O)[C@H](CCCNC(=N)N)NC(=O)[C@@H](NC(C)=O)CSSC[C@@H](C(N)=O)NC(=O)[C@@H]2CCCN2C(=O)[C@H](CC(C)C)NC(=O)CNC1=O [Compound 102] (Ac-CRLPWNLQ[dR]IGLPC-NH2; disulfide 1-14)"
  observed: "< 4.30"
- compound: "CC[C@H](C)[C@@H]1NC(=O)[C@H](CCCNC(=N)N)NC(=O)[C@H](CCC(N)=O)NC(=O)[C@H](CC(C)C)NC(=O)[C@@H](CC(N)=O)NC(=O)[C@H](Cc2c[nH]c3ccccc23)NC(=O)[C@@H]2CCCN2C(=O)[C@H](CC(C)C)NC(=O)[C@H](CCCNC(=N)N)NC(=O)[C@@H](NC(C)=O)CSSC[C@@H](C(N)=O)NC(=O)[C@@H]2CCCN2C(=O)[C@H](CC(C)C)NC(=O)CNC1=O [Compound 105] (Ac-CRLPW[dN]LQRIGLPC-NH2; disulfide 1-14)"
  observed: "< 4.30"

----------
# target.or.system: PCSK9Δhelix (Homo sapiens, UniProt Q8NBP7)
# Construct: Human PCSK9 construct M1-Q692 with an engineered TEV site (residue deletion Y166, R167); made in house; host or cells: CHO
# Sequence (Q8NBP7 with tags, fused parts or gaps limits assumed): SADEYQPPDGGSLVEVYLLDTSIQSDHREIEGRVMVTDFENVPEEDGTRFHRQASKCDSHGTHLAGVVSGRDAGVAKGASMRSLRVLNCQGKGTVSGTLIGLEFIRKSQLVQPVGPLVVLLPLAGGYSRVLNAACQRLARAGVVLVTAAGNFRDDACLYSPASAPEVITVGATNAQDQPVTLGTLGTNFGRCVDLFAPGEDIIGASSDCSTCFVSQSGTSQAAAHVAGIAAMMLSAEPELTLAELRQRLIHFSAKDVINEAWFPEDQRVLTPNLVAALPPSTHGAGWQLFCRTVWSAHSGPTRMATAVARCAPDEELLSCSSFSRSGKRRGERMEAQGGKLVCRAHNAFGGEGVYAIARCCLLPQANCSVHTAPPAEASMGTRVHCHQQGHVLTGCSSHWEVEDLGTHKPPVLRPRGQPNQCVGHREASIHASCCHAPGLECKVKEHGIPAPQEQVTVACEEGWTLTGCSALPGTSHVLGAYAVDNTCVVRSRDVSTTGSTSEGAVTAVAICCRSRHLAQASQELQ
# Sequence (Q8NBP7 31-152 partner limits assumed): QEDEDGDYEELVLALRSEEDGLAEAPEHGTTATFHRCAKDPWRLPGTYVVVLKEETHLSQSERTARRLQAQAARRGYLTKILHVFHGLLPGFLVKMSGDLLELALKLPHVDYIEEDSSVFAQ
# test.method.notes: PCSK9Δhelix/Ab20 TR-FRET binding assay
# condition.info: TR-FRET; Table 8D, disulfide-cyclized extension peptides; read-out: PCSK9Δhelix/Ab20 IC50
Numbered stars: 1 amine (or outer) side, 2 acyl side, 3 side chain; on linkers, the order of the positions; unused ones are H or OH. Bridge positions count the residues as written; N and C are the ends. Square brackets hold non-standard residues; d marks the D form. Peptide text beside a SMILES is read from it. NH(CH2)9CO = O=C(CCCCCCCCCN[*:1])[*:2]

- molecule: "CC(=O)N[C@H]1CSSC[C@@H](C(N)=O)NC(=O)CCCCCCCCCNC(=O)[C@H](CCCNC(=N)N)NC(=O)[C@H](CCC(N)=O)NC(=O)[C@H](CC(C)C)NC(=O)[C@H](CC(N)=O)NC(=O)[C@H](Cc2c[nH]c3ccccc23)NC(=O)[C@@H]2CCCN2C(=O)[C@H](CC(C)C)NC(=O)[C@H](CCCNC(=N)N)NC1=O [Compound 84] (Ac-CRLPWNLQR[NH(CH2)9CO]C-NH2; disulfide 1-11)"
  bound.sign: ">"
  IC50 [µM]: 50
- molecule: "CC[C@H](C)[C@@H]1NC(=O)[C@H](CCCNC(=N)N)NC(=O)[C@H](CCC(N)=O)NC(=O)[C@H](CC(C)C)NC(=O)[C@H](CC(N)=O)NC(=O)[C@H](Cc2c[nH]c3ccccc23)NC(=O)[C@H](C)NC(=O)[C@H](CC(C)C)NC(=O)[C@H](CCCNC(=N)N)NC(=O)[C@@H](NC(C)=O)CSSC[C@@H](C(N)=O)NC(=O)[C@@H]2CCCN2C(=O)[C@H](CC(C)C)NC(=O)CNC1=O [Compound 77] (Ac-CRLAWNLQRIGLPC-NH2; disulfide 1-14)"
  bound.sign: "="
  IC50 [µM]: 6.02
- molecule: "CC[C@H](C)[C@@H]1NC(=O)[C@H](CCCNC(=N)N)NC(=O)[C@H](CCCCN)NC(=O)[C@H](CC(C)C)NC(=O)[C@H](CC(N)=O)NC(=O)[C@H](Cc2c[nH]c3ccccc23)NC(=O)[C@H](CC(C)C)NC(=O)[C@@H](NC(=O)[C@H](CC(=O)O)NC(C)=O)CSSC[C@@H](C(=O)N[C@@H](CCC(=O)O)C(=O)N[C@@H](Cc2ccc(O)cc2)C(N)=O)NC(=O)[C@H](CCC(N)=O)NC(=O)[C@H](CO)NC(=O)CNC1=O [Compound 64] (Ac-DCLWNLKRIGSQCEY-NH2; disulfide 2-13)"
  bound.sign: ">"
  IC50 [µM]: 50
- molecule: "CC[C@H](C)[C@@H]1NC(=O)[C@H](CCCNC(=N)N)NC(=O)[C@H](CCCCN)NC(=O)[C@H](CC(C)C)NC(=O)[C@H](CC(N)=O)NC(=O)[C@H](Cc2c[nH]c3ccccc23)NC(=O)[C@H](CC(C)C)NC(=O)[C@@H](NC(=O)[C@H](Cc2c[nH]c3ccccc23)NC(C)=O)CSSC[C@@H](C(=O)N[C@@H](CCC(=O)O)C(=O)N[C@@H](Cc2ccc(O)cc2)C(N)=O)NC(=O)[C@H](CCC(N)=O)NC(=O)[C@H](CO)NC(=O)CNC1=O [Compound 65] (Ac-WCLWNLKRIGSQCEY-NH2; disulfide 2-13)"
  bound.sign: "="
  IC50 [µM]: 7.1
- molecule: "CC[C@H](C)[C@@H]1NC(=O)[C@H](CCCNC(=N)N)NC(=O)[C@H](CCCCN)NC(=O)[C@H](CC(C)C)NC(=O)[C@H](CC(N)=O)NC(=O)[C@H](Cc2c[nH]c3ccccc23)NC(=O)[C@@H](NC(C)=O)CSSC[C@@H](C(=O)N[C@@H](Cc2c[nH]c3ccccc23)C(N)=O)NC(=O)CNC(=O)[C@H](CCC(N)=O)NC(=O)[C@H](CO)NC(=O)CNC1=O [Compound 39] (Ac-CWNLKRIGSQGCW-NH2; disulfide 1-12)"
  bound.sign: "="
  IC50 [µM]: 37.5
